Cited source: ChEMBL document CHEMBL1201862

# Test system: CCRF-CEM
# experimental protocol: NCI tumour cell line growth inhibition, 48 h
Active and inactive are the calls of the source. No stated cut-off is given here; in the data, active = GI50 up to about 1.1 µM and inactive = higher.
Outcome codes: yes (active), no (inactive)

compound	discrete label
CC1(C)CC(Nc2ccc(Nc3ccccc3)cc2)CC(C)(C)N1	no
O=C1N[C@H]2C(=O)c3c(Cl)sc(Cl)c3[C@H]2O1	yes
COc1ccc(/C=C2\CCC(C)C3=C2NC(=S)NC3c2ccc(OC)c(OC)c2)cc1OC (stereo unspecified)	no
CC(C)=CC(=O)Oc1ccc([N+](=O)[O-])cc1	no
CC(C)C(Sc1nc(N)nc2nc[nH]c12)C(=O)O (stereo unspecified)	no
C[C@@H](O)CCC(=O)c1ccoc1	no
COC(=O)c1c(C)cccc1C1CN=NC12Cc1ccc(C)cc1C2=O (stereo unspecified)	no
O=[N+]([O-])/C(Cl)=C/C(=C1/Nc2ccccc2O1)[N+](=O)[O-]	no
O=C(/C=C/c1ccc(Cl)cc1)c1nc2ccccc2[nH]1	no
C=C1[C@H](OC(=O)C(C)C)[C@@H](OC(C)=O)[C@@H](OC(C)=O)C(C)(C)[C@@H]2O[C@H]2[C@@H](C)C(=O)[C@@]2(OC(C)=O)C[C@@](C)(OC(C)=O)[C@H](OC(C)=O)[C@@H]2[C@H]1OC(C)=O	no
COC(CNC(=O)C(C)NC(=O)/C=C/c1ccccc1)OC (stereo unspecified)	no
CSc1nc(=S)[nH]c2c1c(C)nn2-c1ccccc1	no
Oc1ncnc2c1nnn2CCCCCCCCCCCCn1nnc2c(O)ncnc21	no
CC(C)COP(=O)(OCC(C)C)C(NS(=O)(=O)c1ccccc1)(C(F)(F)F)C(F)(F)F	no
C#CC(C)(C)Oc1cc(O)c2c(=O)c3ccccc3n(C)c2c1	no
c1ccc(C2SCc3nc4cc5ccccc5cc4n32)cc1 (stereo unspecified)	no
c1ccc(-c2cc(-c3cc(-c4ccccc4)[nH]n3)[nH]n2)cc1	no
COc1ccc2c(c1)[n+]([O-])c(/C(C)=N/NC(=O)c1ccccc1O)c(C)[n+]2[O-]	no
Cn1c(=O)c2c(nc3n2CCC(=O)N3CCCCl)n(C)c1=O	no
O=C1C(C(O)(C(F)(F)F)C(F)(F)F)CCC1C(O)(C(F)(F)F)C(F)(F)F (stereo unspecified)	no
C#CCOCn1ccc(=O)[nH]c1=O	no
COC(=O)C12Oc3ccc(-c4ccc5c(c4O)C(=O)C4=CCC(C)C(O)C4(C(=O)OC)O5)c(O)c3C(=O)C1=CCC(C)C2O (stereo unspecified)	yes
CC1(C)c2ccccc2C(=O)C12CCC(=O)CC2	no
c1cc2c(cc1[C@@H]1OC[C@@H]3[C@H]1CO[C@H]3c1ccc3c(c1)OCO3)OCO2	no
CCCCOC(=O)NC(=O)c1cn(CCCOC(=O)CCCCCCCCC(=O)OCCCn2cc(C(=O)NC(=O)OCCCC)c(=O)[nH]c2=O)c(=O)[nH]c1=O	no
NCCCc1c(-c2ccccc2)[nH]c(N)nc1=O	no
C=C1OC(=O)[C@]2([C@@H](/C=C/C)C=CC(=O)[C@H]2O)[C@@H]1O	no
OC1c2ccccc2CC12Cc1ccccc1C2 (stereo unspecified)	no
CC1(C)OC(=S)N(c2ccccc2)C12C=Cc1cc3ccccc3nc1S2 (stereo unspecified)	no
O=C(CSc1nc(-c2ccccc2)c(-c2ccccc2)[nH]1)N/N=C/c1ccc(O)cc1	no
[N-]=[N+]=Nc1c(C=O)c(=O)n2c3c(cccc13)CCC2	yes
Cc1c(C)c(S(=O)(=O)N(CCCCCCN)OCCCN)c(C)c2c1OC(C)(C)CC2	no
C=C(C(=O)OC)c1cc2ccccc2n1S(=O)(=O)c1ccccc1	no
OC(c1cccnc1)C(F)(F)c1nc2ccccc2o1 (stereo unspecified)	no
O=C1c2ccccc2/C=C\C(c2ccccc2)=N/N1c1ccccc1Cl	no
O=C(CN1C(=O)c2ccccc2C1=O)NC1(C(=O)O)CCCC1	no
O=c1oc2ccccc2c(Nc2ccc3c(c2)S(=O)(=O)c2ccccc2O3)c1[N+](=O)[O-]	no
CCO/C=C1\N=C(C(Cl)c2ccccc2)OC1=O (stereo unspecified)	no
CN(NC(=O)CCCl)C1=NCCCCN1	no
CCOC(=O)c1c(N2CCOCC2)[nH]c(=O)c(C(c2c(O)c(C(=O)OCC)c(N3CCOCC3)[nH]c2=O)C(C)C)c1O	no
COc1nc(=O)cc(N)n1C1OC(CO)C(O)C1O (stereo unspecified)	no

----------
# Test system: SF-268
# experimental protocol: NCI tumour cell line growth inhibition, 48 h
Activity calls are given as the source filed them. Cut-off read from the data, not from the text of the source: active = GI50 up to about 1.1 µM and inactive = higher.
Documented GI50 across a set of compounds
reported endpoint: GI50

> print(dat)
                                    compound       value.observed
 1  c1ccc(/N=c2/sc3ccccc3s/c2=N/c2ccccc2)cc1   3.12 µM (inactive)
 2  O=S(=O)(O)c1ccc(-c2nnc(-c3ccccn3)nc2-c2ccc(S(=O)(=O)O)o2)o1  > 100 µM (inactive)
 3  CCC1(CC)C(=O)N(C(=O)c2cc(OC)c(OC)c(OC)c2)N(C(=O)c2cc(OC)c(OC)c(OC)c2)C1=O   > 50 µM (inactive)
 4  CCCCCN1C(=O)C(Cc2ccccc2)N=C(c2ccc(O)cc2)c2cc(Cl)ccc21 (stereo unspecified)   8.73 µM (inactive)
 5  C1CSCCSS[C@@H]2CCCCC2SC1 (stereo partly specified)  > 100 µM (inactive)
 6  COc1cc(Nc2nc3cc(C)ccc3nc2-c2ccccc2)cc(OC)c1OC   11.2 µM (inactive)
 7  COc1nc(=O)cc(N)n1C1OC(CO)C(O)C1O (stereo unspecified)  > 100 µM (inactive)
 8       COc1ccc(C2=C(N)c3c(OC)cccc3C2=O)cc1   37.8 µM (inactive)
 9              COc1ccccc1Nc1nc(N)nc(N)c1N=O  > 100 µM (inactive)
10  O=C1c2ccccc2C(=O)c2c1ccc1c3ccccc3n(Cc3ccccc3)c21  > 100 µM (inactive)
11             CC(C)CC(=O)NS(=O)(=O)c1ccccc1  > 100 µM (inactive)

----------
# Test system: SK-OV-3
# experimental protocol: NCI tumour cell line growth inhibition, 48 h
Active and inactive are the calls of the source. Rule as the data show it: active = GI50 up to about 1.1 µM and inactive = higher.
reported endpoint: GI50

> print(dat)
                                   compound  experimental.system       value.observed
1  CCOC(=O)CC1Nc2ccccc2C12CCc1c([nH]c3ccccc13)C2C(=O)OCC (stereo unspecified)              SK-OV-3    6.4 µM (inactive)
2    O=C(/C=C/c1ccc(Cl)cc1)c1nc2ccccc2[nH]1              SK-OV-3   21.7 µM (inactive)
3   COC(=O)c1c(C#N)[nH]c(-c2ccsc2)c1C(=O)OC              SK-OV-3  > 100 µM (inactive)
4  O=C(Cc1ccccc1)NN1C(=O)C(Cl)C1c1ccc(O)cc1 (stereo unspecified)              SK-OV-3  > 100 µM (inactive)
5  CC(O[Si](C)(C)C)C1C=CC(C)n2c(=O)n(-c3ccccc3)c(=O)n21 (stereo unspecified)              SK-OV-3  > 100 µM (inactive)
6  CN(Cc1cnc2nc(N)nc(N)c2n1)c1ccc(C(=O)NC2CCCCC2)cc1              SK-OV-3   54.6 µM (inactive)

----------
# Tested on: NCI/ADR-RES
# experimental protocol: NCI tumour cell line growth inhibition, 48 h
The source made the active and inactive calls. Rule as the data show it: active = GI50 up to about 1.1 µM and inactive = higher.
// GI50 lookup, one value per entry
reported endpoint: GI50

> print(dat)
                                   molecule  experimental.system  reported.endpoint       value.observed
1  O=C1C(Cl)C(c2cc3cc(Br)ccc3nc2Cl)N1c1ccc(Cl)cc1 (centres undefined)          NCI/ADR-RES               GI50   5.75 µM (inactive)
2  Cc1ccc2c(c1)Nc1cc(C(F)(F)F)ccc1[PH]2=O (centres undefined)          NCI/ADR-RES               GI50   67.1 µM (inactive)
3  COc1ccc(C2CCc3nc4nc(N)nc(N)c4cc3C2)cc1 (centres undefined)          NCI/ADR-RES               GI50   39.2 µM (inactive)
4  CCCc1cn2c(/C=N/NC(=N)N)c(-c3cc([N+](=O)[O-])c(Cl)cc3Cl)nc2s1          NCI/ADR-RES               GI50   1.99 µM (inactive)
5  COC(=O)[C@@H]1[C@H]2CC[C@]3(C)[C@@H](OC(C)=O)CC[C@H]3[C@@H]2CC[C@H]1C1(C)SCCS1          NCI/ADR-RES               GI50   20.4 µM (inactive)
6                 C/C(=N/NC(N)=S)c1ccc[nH]1          NCI/ADR-RES               GI50  > 100 µM (inactive)
7  O=C1c2ccccc2/C=C\C(c2ccccc2)=N/N1c1ccccc1Cl          NCI/ADR-RES               GI50   15.9 µM (inactive)
8  COC1/C=C\C=C(/C)C(=O)NC2=CC(=O)C(O)=C(CC(C)CC(OC)C(O)C(C)/C=C(\C)C1OC(N)=O)C2=O (centres undefined)          NCI/ADR-RES               GI50   64.6 µM (inactive)
9  COc1ccc(/C=C2\C[C@H]3[C@@H]4CC=C5C[C@@H](O)CC[C@]5(C)[C@H]4CC[C@]3(C)\C2=N\O)cc1          NCI/ADR-RES               GI50   19.4 µM (inactive)
